Target: SfurOBP11 (Sogatella furcifera, UniProt V5T6E3)
Sequence (V5T6E3 entry or part of it): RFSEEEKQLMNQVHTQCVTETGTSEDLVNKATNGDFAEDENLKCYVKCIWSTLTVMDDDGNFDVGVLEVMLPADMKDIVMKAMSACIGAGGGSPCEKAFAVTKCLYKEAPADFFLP
Assay: biochemical
Assay type: binding
Settings: ligand concentration 12, replicate 2
Catalogue of compounds with associated Fluorescence intensity, fluorescence competitive binding assay, OBP11
Format: numeric value only, no unit, no commentary.

Bench note: what Fluorescence intensity, fluorescence competitive binding assay, OBP11 did CCCCCC(C)=O show?
22969

Bench note: what Fluorescence intensity, fluorescence competitive binding assay, OBP11 did C=CC(C)(O)CCC=C(C)CCC=C(C)C (mixture of isomers) show?
22102

Then this compound:
Bench note: what Fluorescence intensity, fluorescence competitive binding assay, OBP11 did C=CC(C)(O)CCC=C(C)C (stereo not drawn) show?
31885

----------
Catalogue of compounds with associated IC50
Molecular target: SfurOBP2 (Sogatella furcifera)
Sequence (V5T759 entry or part of it): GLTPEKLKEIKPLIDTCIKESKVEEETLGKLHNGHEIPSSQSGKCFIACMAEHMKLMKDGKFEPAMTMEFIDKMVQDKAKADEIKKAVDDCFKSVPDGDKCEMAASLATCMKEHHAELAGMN
Assay: biochemical
Type: binding

Lookup: IC50 / SfurOBP2 (Sogatella furcifera) / CC(=O)/C=C/C1=C(C)CCCC1(C)C
20 µM

Lookup: IC50 / SfurOBP2 (Sogatella furcifera) / C=C1CC/C=C(\C)CC[C@@H]2[C@@H]1CC2(C)C
2.93 µM

Lookup: IC50 / SfurOBP2 (Sogatella furcifera) / O=C(c1ccccc1)c1ccccc1
> 20 µM

Lookup: IC50 / SfurOBP2 (Sogatella furcifera) / CC1=CC[C@@H](C(C)(C)O)CC1
> 20 µM

Lookup: IC50 / SfurOBP2 (Sogatella furcifera) / OC1CCCCC1
> 20 µM

Lookup: IC50 / SfurOBP2 (Sogatella furcifera) / COC(=O)c1ccccc1
> 20 µM

Lookup: IC50 / SfurOBP2 (Sogatella furcifera) / CCC/C=C/CO [(E)-2-hexenol]
> 20 µM

Lookup: IC50 / SfurOBP2 (Sogatella furcifera) / Cc1ccc(C(C)C)cc1
> 20 µM

Lookup: IC50 / SfurOBP2 (Sogatella furcifera) / c1ccc2ccccc2c1
> 20 µM

Lookup: IC50 / SfurOBP2 (Sogatella furcifera) / O=Cc1ccccc1
> 20 µM

---
Lookup: IC50 / SfurOBP2 (Sogatella furcifera) / C=CC(C)(O)CCC=C(C)C (stereo not shown)
> 20 µM

Lookup: IC50 / SfurOBP2 (Sogatella furcifera) / C[C@@H]1CC[C@H]2C(C)(C)[C@H]3C[C@@]12CC[C@@]3(C)O
> 20 µM

Lookup: IC50 / SfurOBP2 (Sogatella furcifera) / CC/C=C\CCO [(Z)-3-hexenol]
> 20 µM

----------
Target: SfurOBP11 (Sogatella furcifera)
Assay: biochemical
Assay type: binding
Conditions: ligand concentration 6, replicate 3
Catalogue of compounds with associated Fluorescence intensity, fluorescence competitive binding assay, OBP11
Format: numeric value only, no unit, no commentary.

Bench note: what Fluorescence intensity, fluorescence competitive binding assay, OBP11 did CC(=O)/C=C/C1=C(C)CCCC1(C)C show?
26657

Bench note: what Fluorescence intensity, fluorescence competitive binding assay, OBP11 did CCCCCCCCCCC show?
34343

Bench note: what Fluorescence intensity, fluorescence competitive binding assay, OBP11 did CCCCCCCC=O show?
26969

---
Bench note: what Fluorescence intensity, fluorescence competitive binding assay, OBP11 did CC(=O)c1ccccc1 show?
26502

Bench note: what Fluorescence intensity, fluorescence competitive binding assay, OBP11 did CCCCCCCCC=O show?
31826

Bench note: what Fluorescence intensity, fluorescence competitive binding assay, OBP11 did OC1CCCCC1 show?
24500
